Let's look at some variants and their measured self-cleavage.
B1: Hairpin Ribozyme (parent)
chain: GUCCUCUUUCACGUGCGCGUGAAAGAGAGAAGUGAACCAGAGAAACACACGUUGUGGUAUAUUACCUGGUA

Variants of: B1
Assay: self-cleavage, relative activity (ratio to wild type); higher = more cleavage; co-transcriptional
experimental_endpoint: self-cleavage

>>> df
    variant_spec  measurement
 0      C3A A61G        0.186
 1      C3A A41G          0.7
 2      U2A G25C        0.171
 3     G21C U70G        0.658
 4      U9C C46G        0.167
 5     C18U G27U        0.303
 6      U2C U20A         0.25
 7      U5C G68A         0.14
 8      C4U A71C        0.622
 9     A28C A61G          0.1
10     G42A U52C        0.208
11     A11U A22G        0.755
12      U8C U55A         0.16
13     C37A A45G       0.0956
14      U5G G27A        0.216
15     A28G G56A        0.296
16     G42C A45C       0.0604
17     A43U U60A        0.255
18     G32A A59G        0.189
19     A11U A26U        0.775
20     A39U U60C        0.378
21     A23U U53G        0.696
22     U52A G57C       0.0886
23     G54U A64C        0.128
24     G19U C65A        0.733
25     G29A C65G        0.158
26     U20G U70A         1.07
27     U58C C66A        0.201
28     G42C G68C        0.151
29     C16A U53G        0.877
30      C6G A43G       0.0944
31     C37U C66U        0.264
32     A26C G68U        0.186
33     C16U G56U        0.189
34      C3U C12A        0.546
35     C48G A64U        0.149
36     A11U G29C       0.0923
37     G56U U60G        0.231
38     C16G U58G        0.749
39     U33G A44U         0.23
40     U52C A59U        0.115
41     A11C C46A        0.142
42     G57A U62C        0.117
43     G25A A45C        0.109
44     A30G G34A        0.164
45     G19C U53A        0.861
